These measurements were taken from patent US4476120A.

Tested on: H. pertussis SS 03
Assay type: cell-based
Conditions: Brain Heart Infusion, estolate and RV11-RV15 previously hydrolized, unit assumed
METRIC: MIC

Some entries whose results are on file:
{"MOLECULE": "CC[C@H]1OC(=O)[C@H](C)[C@@H](O[C@H]2C[C@@](C)(OC)[C@@H](O)[C@H](C)O2)[C@H](C)[C@@H](O[C@@H]2O[C@H](C)C[C@H](N(C)C)[C@H]2O)[C@](C)(O)C[C@@H](C)C(=O)[C@H](C)[C@@H](O)[C@]1(C)O [RV05, erythromycin-N-acetylcysteinate]", "MIC": "0.2 µg/mL"}
{"MOLECULE": "CC[C@H]1OC(=O)[C@H](C)[C@@H](O[C@H]2C[C@@](C)(OC)[C@@H](O)[C@H](C)O2)[C@H](C)[C@@H](O[C@@H]2O[C@H](C)C[C@H](N(C)C)[C@H]2O)[C@](C)(O)C[C@@H](C)C(=O)[C@H](C)[C@@H](O)[C@]1(C)O [RV04, erythromycin-S-carboxymethylcysteinate]", "MIC": "0.8 µg/mL"}

# ---- query molecule ----
Task: Hello, please tell me recorded MIC for this one: CCC(=O)O[C@H]1[C@H](O[C@@H]2[C@@H](C)[C@H](O[C@H]3C[C@@](C)(OC)[C@@H](O)[C@H](C)O3)[C@@H](C)C(=O)O[C@H](CC)[C@@](C)(O)[C@H](O)[C@@H](C)C(=O)[C@H](C)C[C@@]2(C)O)O[C@H](C)C[C@@H]1N(C)C [RV14]
Output: 0.4 µg/mL

###

Please go through the items and note down their MIC.
Test system: E. coli SS 04
Format: cell-based
Conditions: Brain Heart Infusion, estolate and RV11-RV15 previously hydrolized, unit assumed
One number for each entry, in µg/mL.

Some entries whose results are on file:
{"COMPOUND": "CC[C@H]1OC(=O)[C@H](C)[C@@H](O[C@H]2C[C@@](C)(OC)[C@@H](O)[C@H](C)O2)[C@H](C)[C@@H](O[C@@H]2O[C@H](C)C[C@H](N(C)C)[C@H]2O)[C@](C)(O)C[C@@H](C)C(=O)[C@H](C)[C@@H](O)[C@]1(C)O [RV05, erythromycin-N-acetylcysteinate]", "MEASURED_ON": "E. coli SS 04", "UNITS_TEXT": "µg/mL", "MIC": 100}
{"COMPOUND": "CC[C@H]1OC(=O)[C@H](C)[C@@H](O[C@H]2C[C@@](C)(OC)[C@@H](O)[C@H](C)O2)[C@H](C)[C@@H](O[C@@H]2O[C@H](C)C[C@H](N(C)C)[C@H]2O)[C@](C)(O)C[C@@H](C)C(=O)[C@H](C)[C@@H](O)[C@]1(C)O [RV01, erythromycin alpha-mercaptosuccinate]", "MEASURED_ON": "E. coli SS 04", "UNITS_TEXT": "µg/mL", "MIC": 50}

# ---- query compound ----
Task: Hello, please tell me recorded MIC for this one: CCC(=O)O[C@H]1[C@H](O[C@@H]2[C@@H](C)[C@H](O[C@H]3C[C@@](C)(OC)[C@@H](O)[C@H](C)O3)[C@@H](C)C(=O)O[C@H](CC)[C@@](C)(O)[C@H](O)[C@@H](C)C(=O)[C@H](C)C[C@@]2(C)O)O[C@H](C)C[C@@H]1N(C)C [RV15]
Output: 50
